- MEASUREMENT NOTES: Tissue concentrations of vinorelbine and deacetylvinorelbine 4 h after oral vinorelbine in CES2-modified mice
- Type: in vivo, mouse
- CONDITION CONTEXT: male, mouse, colon, oral, 10 mg/kg, male Ces2^–/– mice, oral vinorelbine 10 mg/kg, read-out: Ccolon (colon concentration)
- Experimental: For capecitabine 2-h experiments, 6–7 female mice received oral capecitabine (500 mg/kg, 10 μL/g), and tail vein blood samples were collected at 0.125, 0.25, 0.5 and 1 h after drug administration. […] Concentrations of capecitabine (and its metabolites) and vinorelbine (and its metabolite) in mouse plasma samples and organ homogenates were determined using two independent validated high-performance liquid chromatography-tandem mass spectrometry assays. […]
ASSAY READOUT: concentration at 4 h (ng/g)

{"COMPOUND": "CCC1=C[C@@H]2CN(C1)Cc1c([nH]c3ccccc13)[C@@](C(=O)OC)(c1cc3c(cc1OC)N(C)[C@H]1[C@@](O)(C(=O)OC)[C@H](OC(C)=O)[C@]4(CC)C=CCN5CC[C@]31[C@@H]54)C2 [Vinorelbine, reference compound]", "UNIT DESCRIPTOR": "ng/g", "VALUE": 581}
